- protocol_notes: qHTS assay to identify small molecule HDAC inhibitors - cell viability counter screen (AID 1259365); further: nearly all actives have a fitted effect of over 50% in size
- cond: HCT-116 viability, CellTiter-Glo ATP luminescence, 2 h; series mostly up to 92.4 µM
Active and inactive are the calls of the source. The call rests on the fitted dose curve; in most records, active means well fitted cell-killing curve with a large enough effect in the repeat runs; inconclusive means weak or mixed curves, or effect the other way; inactive means flat fitted curve, though single readings scatter.
Labels: active, inactive

>  <compound>
Clc1sc(Cl)c(Cl)c1Cl

>  <class>
inactive

$$$$
>  <compound>
Cc1nc2n(c(=O)c1CCN1CCC(c3noc4cc(F)ccc34)CC1)CCCC2

>  <class>
inactive

$$$$
>  <compound>
Fc1ccc(C(c2ccc(F)cc2)N2CCNCC2)cc1

>  <class>
inactive

$$$$
>  <compound>
CCN(CC)c1ccc2c(-c3ccc(S(=O)(=O)O)cc3S(=O)(=O)[O-])c3ccc(=[N+](CC)CC)cc-3oc2c1

>  <class>
active

$$$$
>  <compound>
O=C(O)CCN(C1(C(=O)NO)CCCC1)S(=O)(=O)c1ccc(Oc2ccc(F)cc2)cc1

>  <class>
inactive

$$$$
>  <compound>
CCCCCCCC

>  <class>
inactive

$$$$
>  <compound>
CCCCCCCCCCCC(=O)OCC(C)OC(=O)CCCCC(=O)O (centres undefined)

>  <class>
inactive

$$$$
>  <compound>
CCCCN(CCCC)CC(O)c1cc(Cl)cc2c1-c1ccc(Cl)cc1/C2=C/c1ccc(Cl)cc1 (centres undefined)

>  <class>
inactive

$$$$
>  <compound>
CCCNCCC

>  <class>
inactive

$$$$
>  <compound>
ClCCl

>  <class>
inactive

$$$$
>  <compound>
OC[C@@H](O)[C@@H](O)CO

>  <class>
inactive

$$$$
>  <compound>
CC(C)(c1cc(Br)c(OCC(Br)CBr)c(Br)c1)c1cc(Br)c(OCC(Br)CBr)c(Br)c1 (centres undefined)

>  <class>
inactive

$$$$
>  <compound>
CC(C)=CCNc1ncnc2c1ncn2[C@@H]1O[C@H](CO)[C@@H](O)[C@H]1O

>  <class>
inactive

$$$$
>  <compound>
CC(C)NC[C@@H](O)COc1ccc(CC(N)=O)cc1

>  <class>
inactive

$$$$
>  <compound>
C=CC(=O)Nc1cc2c(Nc3ccc(F)c(Cl)c3)ncnc2cc1OCCCN1CCOCC1

>  <class>
inactive

$$$$
>  <compound>
CC1(C)[C@@H](O)CC[C@]2(C)[C@H]3C(=O)C=C4[C@@H]5C[C@@](C)(C(=O)O)CC[C@]5(C)CC[C@@]4(C)[C@]3(C)CC[C@@H]12

>  <class>
inactive

$$$$
>  <compound>
C#Cc1ccc(-c2ccccc2F)cc1

>  <class>
inactive

$$$$
>  <compound>
C=CCCC(=O)/C=C/C1C(C)=CCCC1(C)C (centres undefined)

>  <class>
inactive

$$$$
>  <compound>
CC(C)=CCC1=C(O)c2ccccc2C(=O)C1=O

>  <class>
inactive

$$$$
>  <compound>
[Cl][Pt-2]([Cl])([Cl])[Cl]

>  <class>
inactive

$$$$
>  <compound>
Nc1cc(Cl)c(O)c(Cl)c1

>  <class>
inactive

$$$$
>  <compound>
COC1=C(OC)C(=O)C(CCCCCCCCCCO)=C(C)C1=O

>  <class>
inactive

$$$$
>  <compound>
Nc1ccc(NCCO)c([N+](=O)[O-])c1

>  <class>
inactive

$$$$
>  <compound>
CC/C=C\CCCCCO

>  <class>
inactive

$$$$
>  <compound>
CCC(C)(CCC(C)C)C(=O)[O][Sn]([CH3])([CH3])[O]C(=O)C(C)(CC)CCC(C)C (centres undefined)

>  <class>
inactive

$$$$
>  <compound>
CN1CCC[C@@H]1CCO[C@](C)(c1ccccc1)c1ccc(Cl)cc1

>  <class>
inactive

$$$$
>  <compound>
CCCCCCCCCCC[C@@H](C[C@@H]1OC(=O)[C@H]1CCCCCC)OC(=O)[C@H](CC(C)C)NC=O

>  <class>
inactive

$$$$
>  <compound>
CN(C)Cc1ccccc1O

>  <class>
inactive

$$$$
>  <compound>
Cc1c(C)c([N+](=O)[O-])c(C(C)(C)C)c([N+](=O)[O-])c1C

>  <class>
inactive

$$$$
>  <compound>
O=C1CCc2ccc(OCCCCN3CCN(c4cccc(Cl)c4Cl)CC3)cc2N1

>  <class>
inactive

$$$$
>  <compound>
CN(C)Cc1cc(C(C)(C)C)c(O)c(C(C)(C)C)c1

>  <class>
inactive

$$$$
>  <compound>
OC12N=C(c3ccccc3)SC1Cc1cc(Cl)ccc12 (centres undefined)

>  <class>
inactive

$$$$
>  <compound>
CCCCC(CC)CN1CN(CC(CC)CCCC)CC(C)(N)C1 (centres undefined)

>  <class>
inactive

$$$$
>  <compound>
CCC(CC)(CC(=O)Nc1cccc(/C=C/c2nc(C3CCC3)cs2)c1)C(=O)O

>  <class>
inactive

$$$$
>  <compound>
Cl[Si](Cl)(c1ccccc1)c1ccccc1

>  <class>
inactive

$$$$
>  <compound>
CCn1c2ccccc2c2cc([N+](=O)[O-])ccc21

>  <class>
inactive

$$$$
>  <compound>
c1ccc(SSc2ccccc2)cc1

>  <class>
inactive

$$$$
>  <compound>
Cc1cc(C(C)(C)C)cc(C)c1CC1=NCCN1

>  <class>
inactive

$$$$
>  <compound>
COc1cc(C)ccc1O

>  <class>
inactive

$$$$
>  <compound>
CC[C@H](C)COC(=O)/C=C/c1ccc(N=Cc2ccc(OC)cc2)cc1

>  <class>
inactive

$$$$
>  <compound>
O=C1c2ccccc2C(=O)N1SC1CCCCC1

>  <class>
inactive

$$$$
>  <compound>
Clc1ccnc(Cl)n1

>  <class>
inactive

$$$$
>  <compound>
CCCCCCOC(=O)C(C)CC (centres undefined)

>  <class>
inactive

$$$$
>  <compound>
OCC(F)(F)F

>  <class>
inactive

$$$$
>  <compound>
CCC(COC(=O)CCS)(COC(=O)CCS)COC(=O)CCS

>  <class>
inactive

$$$$
>  <compound>
CC1=CCC(=C(C)C)CC1

>  <class>
inactive

$$$$
>  <compound>
O=C(O)Cc1ccc2c(c1)C(=O)c1ccccc1CO2

>  <class>
inactive

$$$$
>  <compound>
Nc1nc(-c2ccccc2)cs1

>  <class>
inactive

$$$$
>  <compound>
CCN1C(=O)c2ccccc2C1Nc1ccc(OCCN2CCCCC2)cc1 (centres undefined)

>  <class>
inactive

$$$$

Values were extracted from PubChem BioAssay (Tox21).
